Below, each of the molecules is paired with its reported hERG current change (%, negative = inhibition) at 10uM value.
# experimental.system: human ether-à-go-go-related gene (hERG) potassium channel (human, UniProt Q12809);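 also: peak tail current of the secondary pulse compared with the same well before compound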
# Sequence (Q12809 whole entry, looked up): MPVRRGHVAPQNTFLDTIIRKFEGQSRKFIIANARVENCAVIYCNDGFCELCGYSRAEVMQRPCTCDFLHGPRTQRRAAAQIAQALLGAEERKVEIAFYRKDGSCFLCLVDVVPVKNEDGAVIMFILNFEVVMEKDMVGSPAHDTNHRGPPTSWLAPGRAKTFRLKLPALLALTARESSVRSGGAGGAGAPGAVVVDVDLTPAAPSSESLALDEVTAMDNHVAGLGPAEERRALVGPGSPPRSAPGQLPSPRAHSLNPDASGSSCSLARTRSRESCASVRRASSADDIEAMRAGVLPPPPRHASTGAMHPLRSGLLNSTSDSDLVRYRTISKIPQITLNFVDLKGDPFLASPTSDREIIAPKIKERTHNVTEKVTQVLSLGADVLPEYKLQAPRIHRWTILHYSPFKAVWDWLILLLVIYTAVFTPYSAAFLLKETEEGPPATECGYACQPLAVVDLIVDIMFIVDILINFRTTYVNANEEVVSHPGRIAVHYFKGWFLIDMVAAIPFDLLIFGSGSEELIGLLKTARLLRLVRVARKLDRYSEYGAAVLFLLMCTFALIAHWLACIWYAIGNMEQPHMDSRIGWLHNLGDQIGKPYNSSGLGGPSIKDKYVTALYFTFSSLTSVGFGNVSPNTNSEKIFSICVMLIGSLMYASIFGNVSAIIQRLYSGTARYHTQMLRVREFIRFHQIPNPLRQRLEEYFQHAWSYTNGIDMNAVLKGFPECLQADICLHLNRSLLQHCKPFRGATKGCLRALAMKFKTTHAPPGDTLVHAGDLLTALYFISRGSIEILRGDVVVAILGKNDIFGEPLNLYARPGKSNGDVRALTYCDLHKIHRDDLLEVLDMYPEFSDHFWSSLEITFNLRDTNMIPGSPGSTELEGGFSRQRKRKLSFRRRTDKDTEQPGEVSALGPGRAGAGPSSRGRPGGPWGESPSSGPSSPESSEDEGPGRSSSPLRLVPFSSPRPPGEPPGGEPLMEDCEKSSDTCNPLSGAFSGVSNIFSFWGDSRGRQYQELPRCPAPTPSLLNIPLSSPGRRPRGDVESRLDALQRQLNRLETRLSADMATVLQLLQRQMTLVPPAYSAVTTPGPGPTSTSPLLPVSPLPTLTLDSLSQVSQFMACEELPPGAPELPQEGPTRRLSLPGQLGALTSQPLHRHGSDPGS
# assay.comment: primary screen, population patch clamp on CHO cells stably expressing hERG; higher = less effect of the substance
About 14,000 (4.5%) of roughly 310,000 compounds showed an effect of 50% or more. The effect is printed as a negative number. The sample as a whole holds a higher share of strong results than the screen did.
Just the number in %, nothing appended.

molecule: Cc1cccc(C)c1OCC(=O)Nc1cccc(S(=O)(=O)N2CCCC2)c1
data.value: 3.77
//
molecule: C/C(Cl)=C/Cn1c(SCC(C)C)nc2c1c(=O)[nH]c(=O)n2C
data.value: 15.2
//
molecule: C/C(Cl)=C/Cn1c(SC(C)C)nc2c1c(=O)[nH]c(=O)n2C
data.value: -6.63
//
molecule: Cc1ccc(CNS(=O)(=O)c2ccc3c(c2)NC(=O)C(C)S3)cc1 (stereo not drawn)
data.value: -1.22
//
molecule: Cc1cnc(C(=O)Nc2ccc(F)cc2)cn1
data.value: -0.2
//
molecule: Cn1c(=O)[nH]c(=O)c2c1nc(SCC(=O)O)n2CCCc1ccccc1
data.value: 3.89
//
molecule: Cc1ccc(S(=O)(=O)CCC(=O)c2ccc(F)cc2)cc1
data.value: 8.7
//
molecule: COc1ccc(Cl)cc1S(=O)(=O)N1CCC(C(=O)NCc2ccccn2)CC1
data.value: -7.12
//
molecule: Fc1ccc(-c2csc(N3CCSCC3)n2)cc1
data.value: 17.6
//
molecule: Cn1c(=O)[nH]c(=O)c2c1nc(CN1CCN(c3cccc(Cl)c3)CC1)n2CCc1ccccc1
data.value: -21.8

Form field: reported hERG current change (%, negative = inhibition) at 10uM of `Cc1ccc2c(c1)N(CC(=O)N1CCCc3ccccc31)C(=O)CO2`
-8.16

Form field: reported hERG current change (%, negative = inhibition) at 10uM of CCC(c1nnnn1Cc1ccccc1)N1CCN(c2ccccc2)CC1 (stereo not drawn)
-8.7

Form field: reported hERG current change (%, negative = inhibition) at 10uM of `O=C(Nc1ccn(-c2ccccc2)n1)c1ccccc1Br`
-66

Form field: reported hERG current change (%, negative = inhibition) at 10uM of `CC(C)OC(=O)Nc1ccc2c(c1)N(C(=O)CCN(C)C)c1ccccc1CC2.Cl`
-20.8

Form field: reported hERG current change (%, negative = inhibition) at 10uM of `COc1ccc(OC)c(-n2cc3c(=O)n(C)c(=O)n(C)c3c2)c1`
-8.58

====

# experimental.system: human ether-à-go-go-related gene (hERG) potassium channel (human, UniProt Q12809);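 also: peak tail current of the secondary pulse compared with the same well before compound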
# assay.comment: primary screen, population patch clamp on CHO cells stably expressing hERG; higher = less effect of the substance
About 14,000 (4.5%) of roughly 310,000 compounds showed an effect of 50% or more. The effect is printed as a negative number. What follows is part of a selection rich in strong results, with near analogues and random picks from the rest.
Below, each of the molecules is paired with its reported hERG current change (%, negative = inhibition) at 10uM value.
Just the number in %, nothing appended.

Illustrative cases are given below, each with its answer.
molecule: O=C(COC(=O)c1ccccc1C(=O)c1ccccc1)NCCc1ccccc1
experimental.system: human ether-à-go-go-related gene (hERG) potassium channel (human, UniProt Q12809);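 also: peak tail current of the secondary pulse compared with the same well before compound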
data.value: -64.8

molecule: CC(=O)c1ccc(N=Nc2c(C)[nH]n(-c3ccccc3)c2=O)cc1
experimental.system: human ether-à-go-go-related gene (hERG) potassium channel (human, UniProt Q12809);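 also: peak tail current of the secondary pulse compared with the same well before compound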
data.value: 8.59

Form field: reported hERG current change (%, negative = inhibition) at 10uM of `Cc1ccc(C(=O)c2ccccc2C(=O)OCC(=O)NCCc2ccc(Cl)cc2Cl)cc1`
-9.96

Form field: reported hERG current change (%, negative = inhibition) at 10uM of `O=C(COC(=O)c1ccccc1C(=O)c1ccccc1)NCCc1ccc(Cl)cc1Cl`
-31.9

Form field: reported hERG current change (%, negative = inhibition) at 10uM of `CCOc1ccc(OCCC(=O)N2CCc3cc(OC)c(OC)cc3C2)cc1`
-20.6

Form field: reported hERG current change (%, negative = inhibition) at 10uM of `COc1ccc(CCNc2nc(=O)[nH]nc2C)cc1OC`
2.35

Form field: reported hERG current change (%, negative = inhibition) at 10uM of `Cc1ccc(Cn2nc(C)c(NC(=O)CSc3nc4c(c(C(F)(F)F)n3)CCc3ccccc3-4)c2C)cc1`
13.1

Form field: reported hERG current change (%, negative = inhibition) at 10uM of OC(C#Cc1ccccn1)c1cccs1 (stereo not shown)
3.9

Form field: reported hERG current change (%, negative = inhibition) at 10uM of `O=C(Cc1csc(NC(=O)c2ccccc2)n1)NO`
8.93

Form field: reported hERG current change (%, negative = inhibition) at 10uM of `O=C(COC(=O)c1ccccc1C(=O)c1ccc(Cl)cc1)NCCc1ccccc1`
-18.7
